Test system: TK-10 renal
Experiment: NCI tumour cell line growth inhibition, 48 h
For each of the molecules below, state its TGI.
Respond with the bare value in µM.

Task item: TGI for CN(C)CCNC(=O)c1cccc2cc3ccc4ccccc4c3nc12 ?
Reply: 0.904

Task item: Query (molecule): C/C(=N\Nc1nc2ccccc2n1C)c1ccc2ccccc2n1 ; field requested: TGI
Reply: 34

Task item: Given the entry CN(C)CCS(=O)(=O)Nc1cc(-c2ccc3ncnc(Nc4ccc(F)c(Cl)c4)c3c2)cnc1Cl , report its measured TGI.
Reply: 1.31

Task item: Using the record for COc1ncc2cc1NS(=O)(=O)c1cccc(c1)C(=O)NCC1=CC=C(S1)c1ncnc3c1SC2=C3C , report its TGI.
Reply: 10.4
